Values compiled from patent US7001897B2.

- assay-details: Pharmacokinetics, plasma concentration by bioassay after subcutaneous injection
- Assay type: in vivo
- experimental-conditions: mouse, in vivo, sc, mice (ddY, male), 20 mg/kg subcutaneous, read-out: T1/2 (half-life in plasma concentration) (converted)

{"columns": ["smiles-entry", "half-life [min]"],
 "data": [
  ["C[C@@H](O)[C@H]1C(=O)N2C(C(=O)[O-])=C(SC3CN(c4nc(C#N)cs4)C3)[C@H](C)[C@H]12.[Na+]", 61.2]
]}

* * *

- assay-details: Pharmacokinetics, plasma concentration by bioassay after subcutaneous injection
- Assay type: in vivo
- experimental-conditions: mouse, in vivo, sc, mice (ddY, male), 20 mg/kg subcutaneous, read-out: AUCall (area under the concentration-time curve in plasma)

{"columns": ["smiles-entry", "AUC [µg·h/mL]"],
 "data": [
  ["C[C@@H](O)[C@H]1C(=O)N2C(C(=O)[O-])=C(SC3CN(c4nc(C#N)cs4)C3)[C@H](C)[C@H]12.[Na+]", 165]
]}

* * *

Reported Cmax values for the following molecules.
- assay-details: Pharmacokinetics, plasma concentration by bioassay after subcutaneous injection
- Type: in vivo
- experimental-conditions: mouse, sc, mice (ddY, male), 20 mg/kg subcutaneous, read-out: Cmax (maximal plasma concentration)
observable: Cmax (µg/mL)

{"columns": ["molecule", "observable", "experimental-value"],
 "data": [
  ["C[C@@H](O)[C@H]1C(=O)N2C(C(=O)O)=C(SC3CN(c4nc(C(=O)N[C@H]5CCNC5)cs4)C3)[C@H](C)[C@H]12 [Example 57]", "Cmax", 48.1],
  ["C[C@@H](O)[C@H]1C(=O)N2C(C(=O)[O-])=C(SC3CN(c4nc(C(=O)N5CCOCC5)co4)C3)[C@H](C)[C@H]12.[Na+] [Example 76]", "Cmax", 52.8],
  ["C[C@@H](O)[C@H]1C(=O)N2C(C(=O)[O-])=C(SC3CN(c4nc(C(N)=O)cs4)C3)[C@H](C)[C@H]12.[Na+] [Example 3]", "Cmax", 127],
  ["C[C@@H](O)[C@H]1C(=O)N2C(C(=O)O)=C(SC3CN(c4nc(CN)cs4)C3)[C@H](C)[C@H]12 [Example 67]", "Cmax", 40.2]
]}

* * *

- assay-details: Pharmacokinetics, plasma concentration by bioassay after subcutaneous injection
- Format: in vivo
- experimental-conditions: mouse, sc, mice (ddY, male), 20 mg/kg subcutaneous, read-out: T1/2 (half-life in plasma concentration) (converted)
// classify: if (half-life < 20 min) 1 (yes) else 0 (no)

{"columns": ["smiles-entry", "class-assignment"],
 "data": [
  ["C[C@@H](O)[C@H]1C(=O)N2C(C(=O)O)=C(SC3CN(c4nc(C(=O)N[C@H]5CCNC5)cs4)C3)[C@H](C)[C@H]12", "0 (no)"],
  ["C[C@@H](O)[C@H]1C(=O)N2C(C(=O)[O-])=C(SC3CN(c4nc(C(=O)N5CCOCC5)co4)C3)[C@H](C)[C@H]12.[Na+]", "1 (yes)"],
  ["C[C@@H](O)[C@H]1C(=O)N2C(C(=O)O)=C(SC3CN(c4nc(CN)cs4)C3)[C@H](C)[C@H]12", "0 (no)"],
  ["C[C@@H](O)[C@H]1C(=O)N2C(C(=O)O)=C(SC3CN(c4nc(C(=O)N5CCNCC5)cs4)C3)[C@H](C)[C@H]12", "1 (yes)"],
  ["C[C@@H](O)[C@H]1C(=O)N2C(C(=O)O)=C(SC3CN(c4nc(C(=O)N[C@@H]5CCNC5)cs4)C3)[C@H](C)[C@H]12", "0 (no)"],
  ["C[C@@H](O)[C@H]1C(=O)N2C(C(=O)[O-])=C(SC3CN(c4nc(C(N)=O)cs4)C3)[C@H](C)[C@H]12.[Na+]", "1 (yes)"]
]}
